Reported values of pIC50 for individual entries
target: human TREX2 (residues M44-A279) (Homo sapiens); construct: human TREX2 (residues M44-A279, expressed in E. coli); His-TEV (His tag with TEV site) (N); assay: TREX2 Biochemical Assay (fluorescence, dsDNA substrate degradation); settings: 2.5 nM TREX2, 60 nM dsDNA substrate, 25 minutes at room temperature
pIC50: −log10 of the molar value.

Please review the entries below; each comes with its answer.
>>> measured_result("CN(c1nc(C(=O)Nc2cnoc2)c(O)c(=O)n1C)C(c1ccccc1)c1cc(F)ccc1Cl (single isomer, unassigned) [Example 87]")
"> 6.00"
>>> measured_result("CN(c1nc(C(=O)Nc2cnoc2)c(O)c(=O)n1C)C(c1ccccc1)c1ccccc1Cl (single isomer, unassigned) [Example 40]")
"> 6.00"
>>> measured_result("CN(Cc1cccc2c1cnn2C)c1nc(C(=O)Nc2cnoc2)c(O)c(=O)n1C")
"5.00 to 6.00"

Form field: reported pIC50 of CN(Cc1ccccc1)c1nc(C(=O)Nc2cnoc2)c(O)c(=O)n1C
5.00 to 6.00

One more compound: CN(C)C(=O)c1ccc(CN(C)c2nc(C(=O)Nc3cnoc3)c(O)c(=O)n2C)cc1
4.00 to 5.00

Would you mind doing CN(c1nc(C(=O)Nc2cnoc2)c(O)c(=O)n1C)C(c1ccccn1)c1c(Cl)cccc1Cl (single isomer, unassigned) [Example 60] as well?
5.00 to 6.00

---

Molecular target: human TREX2 (residues M44-A279) (Homo sapiens, UniProt Q9BQ50)
Construct: human TREX2 (residues M44-A279, expressed in E. coli); His-TEV (His tag with TEV site) (N); made in house; host or cells: E. coli
Sequence (Q9BQ50 44-279 isoform Q9BQ50-1): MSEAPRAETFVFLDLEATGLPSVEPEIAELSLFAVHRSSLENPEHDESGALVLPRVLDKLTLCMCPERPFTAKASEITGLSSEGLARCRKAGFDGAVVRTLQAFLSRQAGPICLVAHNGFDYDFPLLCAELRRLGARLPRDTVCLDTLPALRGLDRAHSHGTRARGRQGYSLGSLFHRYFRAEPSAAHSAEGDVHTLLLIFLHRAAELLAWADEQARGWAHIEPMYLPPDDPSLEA
Assay: TREX2 Biochemical Assay (fluorescence, dsDNA substrate degradation)
Details: 2.5 nM TREX2, 60 nM dsDNA substrate, 25 minutes at room temperature
pIC50: −log10 of the molar value.
PROPERTY_LABEL: pIC50

Worked cases, pIC50 given:
>>> measured_result("CN(Cc1cccc2ccccc12)c1nc(C(=O)Nc2cnoc2)c(O)c(=O)n1C")
"5.00 to 6.00"
>>> measured_result("CC(c1c(Cl)cccc1Cl)N(C)c1nc(C(=O)Nc2cnoc2)c(O)c(=O)n1C (single isomer, unassigned) [Example 71]")
"> 6.00"
>>> measured_result("Cc1nn(C)cc1-c1cncc(CN(C)c2nc(C(=O)Nc3cnoc3)c(O)c(=O)n2C)n1")
"5.00 to 6.00"
>>> measured_result("CN(Cc1ccc(Cl)cc1Cl)c1nc(C(=O)Nc2cnoc2)c(O)c(=O)n1C")
"5.00 to 6.00"
>>> measured_result("CN(c1nc(C(=O)Nc2cnoc2)c(O)c(=O)n1C)C(c1ccccc1)c1ccccc1C(F)(F)F (single isomer, unassigned) [Example 83]")
"> 6.00"

What value of pIC50 on human TREX2 (residues M44-A279) (Homo sapiens, UniProt Q9BQ50) does CN(Cc1ccc(Cl)cc1)c1nc(C(=O)Nc2cnoc2)c(O)c(=O)n1C have?
4.00 to 5.00

Subsequent entry: CN(c1nc(C(=O)Nc2cnoc2)c(O)c(=O)n1C)C(c1ccccn1)c1ccccc1Cl (single isomer, unassigned) [Example 57]
> 6.00
